System: Z-138 cell line
Test: Z-138 Proliferation Assay (Cell Titer Glo, 5 days)
Type: cell-based
Conditions: Homo sapiens, 120 h; Z-138 cells, 5 days, Cell Titer Glo; read-out: Proliferation EC50
Protocol: RPMI/Glutamax medium, penicillin-streptomycin, heat inactivated fetal bovine serum were purchased from Life Technologies, Grand Island, N.Y., USA. V-bottom polypropylene 384-well plates were purchased from Greiner Bio-One, Monroe, N.C., USA. […] SpectraMax M5 plate reader was purchased from Molecular Devices LLC, Sunnyvale, Calif., USA. […] Cell viability was measured by quantitation of ATP present in the cell cultures, adding […] of Cell Titer Glo® reagent to the cell plates. […]

{"columns": ["compound", "experimental_target", "EC50"],
 "data": [
  ["COC(CNC(=O)c1cc(NC2CN(C(C)=O)C2)ncn1)CN1CCc2ccccc2C1 (centres unmarked)", "Z-138 cell line", "> 5 µM"],
  ["CCN1CCN(c2nc(NC3CNC3)cc(C(=O)NC[C@H](O)CN3CCc4ccccc4C3)n2)CC1", "Z-138 cell line", "1 to 10 µM"],
  ["CC(=O)N1CCC(Nc2cc(C(=O)NC[C@H](O)CN3CCc4ccccc4C3)cc(N3CCN(C(C)=O)CC3)n2)CC1", "Z-138 cell line", "0.101 to 1 µM"],
  ["CNC(=O)[C@H]1C[C@@H](Nc2cc(C(=O)NC[C@H](O)CN3CCc4ccccc4C3)ncn2)C1", "Z-138 cell line", "0.101 to 1 µM"],
  ["CC(C)CN1CC(Nc2cc(C(=O)NC[C@H](O)CN3CCc4ccccc4C3)ncn2)C1", "Z-138 cell line", "1 to 10 µM"],
  ["CC(C)CC(=O)N1CC(Nc2cc(C(=O)NC[C@H](O)CN3CCc4ccccc4C3)ccn2)C1", "Z-138 cell line", "< 0.1 µM"],
  ["O=C(NC[C@H](O)CN1CCc2ccccc2C1)c1ccnc(NC2CCN(C(=O)C3CC3)CC2)c1", "Z-138 cell line", "< 0.1 µM"],
  ["O=C(NC[C@H](O)CN1CCc2ccccc2C1)c1ccnc(NC2CCN(C(=O)C3CCC3)CC2)c1", "Z-138 cell line", "< 0.1 µM"]
]}

====

Target: PRMT5/MEP50 (Homo sapiens (Human))
Sequence (O14744 other isoform, or with tags, fused parts or gaps): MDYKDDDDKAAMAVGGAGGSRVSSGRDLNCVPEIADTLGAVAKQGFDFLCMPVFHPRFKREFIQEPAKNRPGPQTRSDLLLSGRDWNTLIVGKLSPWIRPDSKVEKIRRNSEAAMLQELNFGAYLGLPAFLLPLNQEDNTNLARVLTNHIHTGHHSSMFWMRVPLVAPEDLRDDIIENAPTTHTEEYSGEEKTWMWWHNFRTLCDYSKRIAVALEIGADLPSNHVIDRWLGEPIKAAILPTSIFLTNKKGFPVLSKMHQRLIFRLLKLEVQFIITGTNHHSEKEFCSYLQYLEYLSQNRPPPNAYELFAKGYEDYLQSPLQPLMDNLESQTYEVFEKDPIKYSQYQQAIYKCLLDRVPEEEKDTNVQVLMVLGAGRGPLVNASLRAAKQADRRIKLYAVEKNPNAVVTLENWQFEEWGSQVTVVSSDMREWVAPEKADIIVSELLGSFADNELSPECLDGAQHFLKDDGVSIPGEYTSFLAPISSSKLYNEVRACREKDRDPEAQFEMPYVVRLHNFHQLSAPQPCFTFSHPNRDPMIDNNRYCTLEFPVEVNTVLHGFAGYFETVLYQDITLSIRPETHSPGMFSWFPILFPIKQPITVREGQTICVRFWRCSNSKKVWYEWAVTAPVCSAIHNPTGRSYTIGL
Sequence (Q9BQA1 other isoform, or with tags, fused parts or gaps partner): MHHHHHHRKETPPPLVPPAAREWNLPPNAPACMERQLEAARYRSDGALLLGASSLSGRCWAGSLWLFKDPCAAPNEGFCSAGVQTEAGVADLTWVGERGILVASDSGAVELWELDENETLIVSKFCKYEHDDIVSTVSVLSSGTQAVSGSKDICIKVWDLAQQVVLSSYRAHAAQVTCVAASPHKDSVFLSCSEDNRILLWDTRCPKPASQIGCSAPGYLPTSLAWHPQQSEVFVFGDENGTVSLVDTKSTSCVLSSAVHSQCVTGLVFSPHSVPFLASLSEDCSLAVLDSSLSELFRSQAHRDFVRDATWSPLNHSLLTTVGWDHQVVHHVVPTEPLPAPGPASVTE
Test: PRMT5 Biochemical Assay (PRMT5/MEP50 enzyme assay on peptide substrate, 3H-SAM Flashplate)
Settings: PRMT5 biochemical assay
Text: S-adenosylmethionine (SAM), S-adenosylhomocysteine (SAH), bicine, KCl, Tween20, dimethylsulfoxide (DMSO), bovine skin gelatin (BSG), and Tris(2-carboxyethyl)phosphine hydrochloride solution (TCEP) were purchased from Sigma-Aldrich at the highest level of purity possible. ^3H-SAM was purchase from American Radiolabeled Chemicals with a specific activity of 80 Ci/mmol. 384-well streptavidin Flashplates were purchased from PerkinElmer. […]

{"columns": ["compound", "IC50"],
 "data": [
  ["O=C(NC[C@H](O)CN1CCc2ccccc2C1)c1cc(N[C@H]2C[C@H](O)C2)ncn1", "< 0.1 µM"],
  ["COC(CNC(=O)c1cc(NC2CCN(C)CC2)ncn1)CN1CCc2ccccc2C1 (centres unmarked)", "1 to 10 µM"],
  ["CC(=O)N1CC(Nc2cc(C(=O)NC[C@H](O)CN3CCc4ccccc4C3(C)C)ncn2)C1", "0.101 to 1 µM"],
  ["CCN1CCN(c2nc(NC3CNC3)cc(C(=O)NC[C@H](O)CN3CCc4ccccc4C3)n2)CC1", "< 0.1 µM"],
  ["CN(c1cc(C(=O)NC[C@H](O)CN2CCc3ccccc3C2)ncn1)C1COC1", "< 0.1 µM"],
  ["CCCC(=O)N1CC(Nc2cc(C(=O)NC[C@H](O)CN3CCc4ccccc4C3)ncn2)C1", "< 0.1 µM"],
  ["O=C(NC[C@H](O)CN1CCc2ccccc2C1)c1cc(NC2COC2)nc(NC2COC2)n1", "< 0.1 µM"],
  ["O=C(NC[C@H](O)CN1CCc2ccccc2C1)c1cnnc(NC2CCOC2)c1 (some centres unmarked)", "< 0.1 µM"]
]}
